assay_notes: Kinetic modeling of urinary aPM with a pseudo one-compartment nonlinear mixed-effects model after α-pinene inhalation
Type: in vivo, human
cond: human urine after 10 min α-pinene inhalation; F normalized to the sum of 22 detected metabolites
F (%), fraction of metabolite generated from absorbed α-pinene reference
experimental_endpoint: F (%), fraction of metabolite generated from absorbed α-pinene

INSERT INTO measurements (compound, reported_result) VALUES
  ('CC1(C)C2CCC(C(=O)OC3OC(C(=O)O)C(O)C(O)C3O)C1C2 (single isomer, unassigned) [aPM4a, Dihydromyrtenic acid-GlcA]', 3.19),
  ('CC1(C)C2CC1C(OC1OC(C(=O)O)C(O)C(O)C1O)C=C2C(=O)O (single isomer, unassigned) [aPM5e, Myrtenic acid-4-O-GlcA]', 0.38),
  ('CC1(C)C2CCC(C(=O)OC3OC(C(=O)O)C(O)C(O)C3O)C1C2 (single isomer, unassigned) [aPM4e, Dihydromyrtenic acid-GlcA]', 18.14),
  ('CC1(C)C2CC1C(OC1OC(C(=O)O)C(O)C(O)C1O)C=C2C(=O)O (single isomer, unassigned) [aPM5a, Myrtenic acid-4-O-GlcA]', 0.25),
  ('CC1(C)C2CCC(C(=O)OC3OC(C(=O)O)C(O)C(O)C3O)C1C2 (single isomer, unassigned) [aPM4d, Dihydromyrtenic acid-GlcA]', 13.03),
  ('CC1(C)C2CCC(C(=O)OC3OC(C(=O)O)C(O)C(O)C3O)C1C2 (single isomer, unassigned) [aPM4c, Dihydromyrtenic acid-GlcA]', 0.26);

* * *

Here the recorded Proportion (observed) after α-pinene inhalation is given for each entry.
assay_notes: Relative quantification of urinary aPM (UPLC-QTOF-MS, creatinine-normalized) after controlled α-pinene inhalation
Format: in vivo, human
cond: share of total response of 22 aPM, averaged over post-exposure samples
experimental_endpoint: Proportion (observed) after α-pinene inhalation (%)

INSERT INTO measurements (compound, reported_result) VALUES
  ('CC1(C)C2CC1C(OC1OC(C(=O)O)C(O)C(O)C1O)C=C2C(=O)O (single isomer, unassigned) [aPM5b, Myrtenic acid-4-O-GlcA]', 1.6),
  ('CC1(C)C2CC1C(OC1OC(C(=O)O)C(O)C(O)C1O)C=C2C(=O)O (single isomer, unassigned) [aPM5d, Myrtenic acid-4-O-GlcA]', 0.4),
  ('CC1(C)C2CC=C(C(=O)OC3OC(C(=O)O)C(O)C(O)C3O)C1C2 (single isomer, unassigned)', 3.2),
  ('CC1(C)C2CC1C(OC1OC(C(=O)O)C(O)C(O)C1O)C=C2C(=O)O (single isomer, unassigned) [aPM5a, Myrtenic acid-4-O-GlcA]', 0.3),
  ('CC1(C)C2CC=C(COC3OC(C(=O)O)C(O)C(O)C3O)C1C2 (stereo not shown) [aPM2c, myrtenol glucuronide]', 4.9),
  ('CC1(C)C2CC1C(C(=O)O)=CC2=O (stereo not shown)', 1.8),
  ('CC1(C)C2CC1C(OC1OC(C(=O)O)C(O)C(O)C1O)C=C2C(=O)O (single isomer, unassigned) [aPM5g, Myrtenic acid-4-O-GlcA]', 4.4),
  ('CC1(C)C2CCC(C(=O)OC3OC(C(=O)O)C(O)C(O)C3O)C1C2 (single isomer, unassigned) [aPM4b, Dihydromyrtenic acid-GlcA]', 1.2),
  ('CC1(C)C2CCC(C(=O)OC3OC(C(=O)O)C(O)C(O)C3O)C1C2 (single isomer, unassigned) [aPM4c, Dihydromyrtenic acid-GlcA]', 0.5),
  ('CC1(C)C2CC1C(OC1OC(C(=O)O)C(O)C(O)C1O)C=C2C(=O)O (single isomer, unassigned) [aPM5e, Myrtenic acid-4-O-GlcA]', 0.3);
